tested on: Mycobacterium tuberculosis strain EH4.0 expressing green-fluorescent protein (GFP); assay: microbe, parasite or virus in culture; assay type: cell-based; settings: read-out: pIC50 (converted)
Observation type: IC50 (µM)
Unit µM implied. Number only.

Reference set, count: 3
COC1=NN(c2ccc(CNC(=O)c3nnc4ccc(Br)cn34)cc2F)CCN1S(=O)(=O)C(F)(F)F ... 0.0389
CCc1nc2c(C)cc(C)cn2c1C(=O)NCc1ccc(N2CCN(S(=O)(=O)C(F)(F)F)C=N2)c(F)c1 ... 0.038
COCc1nc2ccc(Cl)cn2c1C(=O)NCc1ccc(N2CCN(S(=O)(=O)C(F)(F)F)C=N2)cc1 ... 0.251

Ask: IC50 for CCc1nc2ccc(C)cn2c1C(=O)NCc1ccc(N2CCN(S(=O)(=O)C(F)(F)F)C(C(=O)N(C)C)=N2)cc1 ?
Reply: 0.0107

Ask: IC50 for COC1=NN(c2ccc(CNC(=O)c3nnc4ccc(Cl)cn34)cc2F)CCN1S(=O)(=O)C(F)(F)F ?
Reply: 0.0537

====

type: physicochemical; conditions: 48 h, 30 μM, pH 1.6
The compounds listed here are annotated with their chemical stability (% by LCMS), ACN/0.1N HCl.
Unit % implied. Number only.

Reference set, count: 5
CC(C)C1=NN(c2ccc(CNC(=O)c3c(C(F)(F)F)nc4ccccn34)cc2F)CCN1S(=O)(=O)C(F)(F)F ... 100
CCc1nc2ncc(C)cn2c1C(=O)NCc1ccc(N2CCN(S(=O)(=O)C(F)(F)F)C(C)=N2)c(F)c1 ... 100
Cc1ccc2nc(C(F)F)c(C(=O)NCc3ccc(N4CCN(S(=O)(=O)C(F)(F)F)C(C(C)C)=N4)c(F)c3)n2c1 ... 100
CCc1nc2ccc(C)cn2c1C(=O)NCc1ccc(N2CCN(S(=O)(=O)C(F)(F)F)C(C(=O)N(C)C)=N2)cc1 ... 100
CCc1nc2cc(C)c(C)cn2c1C(=O)NCc1ccc(N2CCN(S(=O)(=O)C(F)(F)F)C(C(C)C)=N2)c(F)c1 ... 100

Let us examine a further case.
Ask: chemical stability (% by LCMS), ACN/0.1N HCl for CCc1nc2ncc(C)cn2c1C(=O)NCc1ccc(N2CCN(S(=O)(=O)C(F)(F)F)C(C(C)C)=N2)c(F)c1 ?
Reply: 100

====

The compounds listed here are annotated with their chemical stability (% by LCMS), DMSO.
format: physicochemical; conditions: 0 h, 30 μM
Unit % implied. Number only.

Reference set, count: 4
CCc1nc2c(F)cc(Cl)cn2c1C(=O)NCc1ccc(N2CCN(S(=O)(=O)C(F)(F)F)C(C3CC3)=N2)c(F)c1 ... 98
CCc1nc2ccc(C)cn2c1C(=O)NCc1ccc(N2CCN(S(=O)(=O)C(F)(F)F)C(C(=O)OC)=N2)cc1 ... 99
CCc1nc2ccc(C)cn2c1C(=O)NCc1ccc(N2CCN(S(=O)(=O)C(F)(F)F)C(C(=O)N(C)C)=N2)cc1 ... 98
CCc1nc2ccc(C)cn2c1C(=O)NCc1ccc(N2CCN(S(=O)(=O)C(F)(F)F)C(C(N)=O)=N2)cc1 ... 98

Ask: chemical stability (% by LCMS), DMSO for CCc1nc2ncc(C)cn2c1C(=O)NCc1ccc(N2CCN(S(=O)(=O)C(F)(F)F)C(C)=N2)c(F)c1 ?
Reply: 100

Ask: chemical stability (% by LCMS), DMSO for CC1=NN(c2ccc(CNC(=O)c3c(C(F)(F)F)nc4ccccn34)cc2F)CCN1S(=O)(=O)C(F)(F)F ?
Reply: 99

Ask: chemical stability (% by LCMS), DMSO for CCc1nc2ncc(C)cn2c1C(=O)NCc1cnc(N2CCN(S(=O)(=O)C(F)(F)F)C(C)=N2)c(F)c1 ?
Reply: 100

Ask: chemical stability (% by LCMS), DMSO for CCc1nc2cc(C)c(C)cn2c1C(=O)NCc1ccc(N2CCN(S(=O)(=O)C(F)(F)F)C(C(C)C)=N2)c(F)c1 ?
Reply: 100

Ask: chemical stability (% by LCMS), DMSO for CCc1nc2c(F)cc(Cl)cn2c1C(=O)NCc1ccc(N2CCN(S(=O)(=O)C(F)(F)F)C(C(C)C)=N2)c(F)c1 ?
Reply: 100

Ask: chemical stability (% by LCMS), DMSO for CC(C)C1=NN(c2ccc(CNC(=O)c3c(C(F)(F)F)nc4ccccn34)cc2F)CCN1S(=O)(=O)C(F)(F)F ?
Reply: 96

Ask: chemical stability (% by LCMS), DMSO for Cc1ccc2nc(C(F)F)c(C(=O)NCc3ccc(N4CCN(S(=O)(=O)C(F)(F)F)C(C(C)C)=N4)c(F)c3)n2c1 ?
Reply: 100

Ask: chemical stability (% by LCMS), DMSO for CC1=NN(c2ccc(CNC(=O)c3c(C(F)(F)F)nc4ncc(C)cn34)cc2F)CCN1S(=O)(=O)C(F)(F)F ?
Reply: 99

Ask: chemical stability (% by LCMS), DMSO for CC1=NN(c2ccc(CNC(=O)c3c(C(F)(F)F)nc4ccc(C)cn34)cc2F)CCN1S(=O)(=O)C(F)(F)F ?
Reply: 100
